Cited source: patent US20240018123A1

CC50 for assorted molecules
Test system: VCaP cells
Assay: Cytotoxicity assessment (Cell-titer-glo cell viability), VCaP
Details: read-out: VCaP (CC50); VCaP cells, 6 days of treatment, Cell-titer-glo, vs DMSO
measurement label: CC50 (nM)

{"columns": ["molecule", "measurement label", "numeric readout"],
 "data": [
  ["CC1(C)C(NC(=O)c2ccc(N3CCN(CC4CCN(c5ccc6nnn(C7CCC(=O)NC7=O)c(=O)c6c5)CC4)CC3)nc2)C(C)(C)C1Oc1ccc(C#N)c(Cl)c1 (stereo not shown)", "CC50", 7.68],
  ["CC1(C)C(NC(=O)c2ccc(-n3cc(CCNc4ccc5nnn(C6CCC(=O)NC6=O)c(=O)c5c4)nn3)cc2)C(C)(C)C1Oc1ccc(C#N)c(Cl)c1 (stereo not shown)", "CC50", 45.4],
  ["CC1(C)C(NC(=O)c2ccc(-c3cnn(C4CCN(CC5CCN(C(=O)C6CCN(c7ccc8nnn(C9CCC(=O)NC9=O)c(=O)c8c7)CC6)CC5)CC4)c3)cc2)C(C)(C)C1Oc1ccc(C#N)c(Cl)c1 (stereo not shown)", "CC50", 14.4]
]}

----------
// reported Degradation (1 μM treated in LNCaP, % AR remaining) per item
Target: Androgen receptor (AR) (Homo sapiens, UniProt P10275, T878A)
Construct: 5.5×10^5 LNCap cells were injected into each well of a 6-well plate; endogenous in cells; host or cells: LNCaP
Sequence (P10275 whole entry T878A): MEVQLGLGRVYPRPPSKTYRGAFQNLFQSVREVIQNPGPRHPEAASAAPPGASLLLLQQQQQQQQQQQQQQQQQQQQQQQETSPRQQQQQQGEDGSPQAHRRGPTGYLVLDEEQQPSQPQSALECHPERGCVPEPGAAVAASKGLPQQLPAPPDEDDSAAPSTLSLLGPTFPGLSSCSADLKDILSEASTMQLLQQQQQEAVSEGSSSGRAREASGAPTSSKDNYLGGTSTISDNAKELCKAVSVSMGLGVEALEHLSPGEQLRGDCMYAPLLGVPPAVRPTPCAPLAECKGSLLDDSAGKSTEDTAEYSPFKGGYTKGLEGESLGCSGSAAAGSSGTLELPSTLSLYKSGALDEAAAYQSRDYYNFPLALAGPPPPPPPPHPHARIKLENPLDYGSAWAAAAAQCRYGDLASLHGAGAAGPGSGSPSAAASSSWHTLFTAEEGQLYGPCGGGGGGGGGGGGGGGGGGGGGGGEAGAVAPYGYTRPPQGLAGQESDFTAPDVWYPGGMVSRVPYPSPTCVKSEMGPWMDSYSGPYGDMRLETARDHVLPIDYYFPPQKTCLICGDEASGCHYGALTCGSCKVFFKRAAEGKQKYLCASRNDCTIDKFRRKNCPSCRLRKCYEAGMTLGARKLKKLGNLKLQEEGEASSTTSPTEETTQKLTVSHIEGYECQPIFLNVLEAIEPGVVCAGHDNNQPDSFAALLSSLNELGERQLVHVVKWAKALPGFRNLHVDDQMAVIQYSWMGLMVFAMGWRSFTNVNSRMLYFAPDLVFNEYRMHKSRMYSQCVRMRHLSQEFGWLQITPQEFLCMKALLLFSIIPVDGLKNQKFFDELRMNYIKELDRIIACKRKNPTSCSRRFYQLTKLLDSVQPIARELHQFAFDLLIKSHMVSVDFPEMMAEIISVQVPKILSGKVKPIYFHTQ
Assay: Assessment of AR proteolytic activity (Western blotting of LNCap cell lysates)
Format: cell-based
Settings: 24 hours of treatment, Western blotting quantified with Image J
measurement label: Degradation (1 μM treated in LNCaP, % AR remaining) (%)

{"columns": ["compound", "numeric readout"],
 "data": [
  ["CC1(C)C(NC(=O)c2ccc(C#CCN3CC4(CCN(c5ccc6nnn(C7CCC(=O)NC7=O)c(=O)c6c5)CC4)C3)nc2)C(C)(C)C1Oc1ccc(C#N)c(Cl)c1 (stereo not shown)", 18],
  ["CC1(C)C(NC(=O)c2ccc(N3CCN(CCCOC4CCN(C(=O)C5CN(c6ccc7nnn(C8CCC(=O)NC8=O)c(=O)c7c6)C5)CC4)CC3)cc2)C(C)(C)C1Oc1ccc(C#N)c(Cl)c1 (stereo not shown)", 9.8],
  ["CC1(C)[C@H](NC(=O)c2ccc(N3CC4CC3CN4CC3CCN(C(=O)C4CN(c5ccc6nnn(C7CCC(=O)NC7=O)c(=O)c6c5)C4)CC3)cc2)C(C)(C)[C@H]1Oc1ccc(C#N)c(Cl)c1 (stereo partly shown)", 40],
  ["CC1(C)C(NC(=O)c2ccc(C#CC3CCN(CC4CN(c5ccc6c(=O)n(C7CCC(=O)NC7=O)nnc6c5)C4)CC3)nc2)C(C)(C)C1Oc1ccc(C#N)c(Cl)c1 (stereo not shown)", 7.5]
]}
